Target: T1, full-length untagged human GPNMB expressed on cells (human, UniProt Q14956 23-572)
T1 construct: also used here for GPNMB on human monocyte-derived macrophages in the functional assays; also called huGPNMB; Freestyle293-huGPNMB+
T1 sequence: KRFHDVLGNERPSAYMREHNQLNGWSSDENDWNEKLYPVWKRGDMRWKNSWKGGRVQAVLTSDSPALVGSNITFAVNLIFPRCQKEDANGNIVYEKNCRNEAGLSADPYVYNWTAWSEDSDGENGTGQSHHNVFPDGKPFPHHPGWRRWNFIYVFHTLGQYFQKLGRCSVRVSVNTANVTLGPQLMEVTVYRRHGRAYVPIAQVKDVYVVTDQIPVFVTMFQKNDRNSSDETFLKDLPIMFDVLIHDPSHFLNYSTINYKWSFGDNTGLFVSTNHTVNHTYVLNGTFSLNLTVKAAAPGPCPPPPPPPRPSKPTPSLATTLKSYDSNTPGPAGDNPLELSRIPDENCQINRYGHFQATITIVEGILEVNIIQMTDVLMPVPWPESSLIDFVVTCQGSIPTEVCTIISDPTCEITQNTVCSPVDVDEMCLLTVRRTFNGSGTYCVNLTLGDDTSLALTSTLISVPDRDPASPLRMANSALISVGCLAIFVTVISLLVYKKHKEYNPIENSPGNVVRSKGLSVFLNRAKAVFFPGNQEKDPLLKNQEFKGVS
Assay: FACS titration, FS293-huGPNMB+ cells
Protocol: Affinity matured anti-GPNMB antibodies of the present disclosure were examined to determine their ability to bind human and mouse GPNMB expressed on FS293-huGPNMB+ or B16F10 cells, respectively. […] After addition of fluorescently labeled secondary antibody and brief washing steps, MFI values as a function of titrated antibody concentration were recorded via FACS analysis. […]
I'd be grateful if you could share measured pEC50 for these entries.
Please keep in mind that pEC50 is minus log10 of the molar concentration; only the number is needed.

Inquiry: I have this binder here, anti-GPNMB antibody GPN-83 (antibody, V domains shown) VH: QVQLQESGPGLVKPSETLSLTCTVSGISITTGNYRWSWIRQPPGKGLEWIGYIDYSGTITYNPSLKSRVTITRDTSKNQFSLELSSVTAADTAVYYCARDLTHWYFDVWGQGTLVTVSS VL: DIVMTQSPDSLAVSLGERATINCKSSRSVDYYGIGFVNWYQQKPGQPPKLLIYATSIQGSGVPDRFSGSGSGTDFTLTISSLQAEDVAVYYCQQQKEVPPTFGGGTKVEIK , and I need its recorded pEC50.
Reply text: 9.69

Inquiry: Looking for the measured pEC50 of anti-GPNMB antibody GPN-95 (antibody, V domains shown, also called PGN-95) VH: QVQLVQSGAEVKKPGASVKVSCKASGYTFTSYWMHWVRQAPGQGLEWMGEINPYDQRTNYAQKFQGRVTMTVDKSTSTVYMELSSLRSEDTAVYYCARSTGNYAWFAYWGQGTLVTVSS VL: DIVMTQSPDSLAVSLGERATINCKTSQDVSPSLAWYQQKPGQPPKLLIYSARYRYTGVPDRFSGSGSGTDFTLTISSLQAEDVAVYYCQQHYSIPLQFGGGTKVEIK , can you help?
Reply text: 9.74

Inquiry: Find the recorded pEC50 belonging to anti-GPNMB antibody GPN-87 (antibody, V domains shown) VH: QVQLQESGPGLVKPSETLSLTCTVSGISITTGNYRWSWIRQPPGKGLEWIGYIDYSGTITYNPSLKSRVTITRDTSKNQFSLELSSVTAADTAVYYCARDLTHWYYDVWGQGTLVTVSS VL: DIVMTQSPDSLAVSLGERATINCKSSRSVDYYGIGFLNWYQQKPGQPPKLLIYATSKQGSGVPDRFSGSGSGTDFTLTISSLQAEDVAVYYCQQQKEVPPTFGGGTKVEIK and report it.
Reply text: 9.50

Inquiry: Sample anti-GPNMB antibody GPN-91 (antibody, V domains shown) VH: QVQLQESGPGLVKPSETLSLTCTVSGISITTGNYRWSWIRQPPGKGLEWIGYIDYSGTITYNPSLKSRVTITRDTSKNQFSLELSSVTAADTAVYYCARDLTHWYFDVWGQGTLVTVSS VL: DIVMTQSPDSLAVSLGERATINCKSSRSVDYYGIGFLNWYQQKPGQPPKLLIYATSHQGSGVPDRFSGSGSGTDFTLTISSLQAEDVAVYYCQQQKERPPTFGGGTKVEIK — what was its pEC50?
Reply text: 9.62

Inquiry: Return reported pEC50; argument: anti-GPNMB antibody GPN-84 (antibody, V domains shown) VH: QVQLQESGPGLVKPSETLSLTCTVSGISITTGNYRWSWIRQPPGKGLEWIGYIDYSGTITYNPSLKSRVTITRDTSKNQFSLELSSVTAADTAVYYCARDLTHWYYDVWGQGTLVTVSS VL: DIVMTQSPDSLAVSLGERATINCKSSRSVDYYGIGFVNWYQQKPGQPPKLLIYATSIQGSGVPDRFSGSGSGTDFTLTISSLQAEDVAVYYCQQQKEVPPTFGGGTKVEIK
Reply text: 9.62

Inquiry: Quick one: pEC50 for anti-GPNMB antibody GPN-94 (antibody, V domains shown) VH: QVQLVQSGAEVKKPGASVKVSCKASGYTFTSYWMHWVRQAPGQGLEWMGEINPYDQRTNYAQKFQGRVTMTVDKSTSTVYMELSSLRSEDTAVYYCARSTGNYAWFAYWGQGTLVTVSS VL: DIVMTQSPDSLAVSLGERATINCKTSQDVSPSLAWYQQKPGQPPKLLIYSASKRYTGVPDRFSGSGSGTDFTLTISSLQAEDVAVYYCQQHYSIPLTFGGGTKVEIK ?
Reply text: 9.73
